# Tested on: Klebsiella pneumoniae
# condition_details: Concentration 32 ug.mL-1;; ASSAY_TEST Inhibition of Bacterial Growth; detection method Absorption (OD600); MEDIA CAMHB; plate type 384well; NBS; CORNING #3640; time 18 hr
# Description: Antibacterial activity against Klebsiella pneumoniae MDR ATCC 70063 (CO-ADD:GN_003); MIC in CAMBH media using NBS plates, by OD(600)
Measured potencies and affinities stand elsewhere.
Decide using Inhibition alone. Strictly below 10%: yes (1). Equal to or above 10%: no (0).

Ask | Find out if reported Inhibition for O=C(Cn1nc2c(N3CCOCC3)nccn2c1=O)NCc1ccc(C(F)(F)F)cc1 is less than 10%
Reply | yes (1)

Ask | Find out if reported Inhibition for Cc1cc2nn(CC(=O)Nc3ccc(F)cc3Cl)c(=O)n2c(Nc2ccccc2C)n1 is less than 10%
Reply | yes (1)

Ask | Find out if reported Inhibition for Cc1ccc(-c2cc3c4nnc(SCC(=O)Nc5cccc(Br)c5)n4ccn3n2)cc1 is less than 10%
Reply | yes (1)

Ask | Find out if reported Inhibition for COc1cccc(Oc2nccn3c(=O)n(CC(=O)NCc4ccccc4Cl)nc23)c1 is less than 10%
Reply | no (0)

Ask | Find out if reported Inhibition for COc1ccc(NC(=O)Cn2nc3c(N4CCOCC4)nccn3c2=O)cc1Cl is less than 10%
Reply | yes (1)

Ask | Find out if reported Inhibition for Cc1ccccc1Oc1nc2ccccc2n2c(=O)n(CC(=O)Nc3cccc(C(F)(F)F)c3)nc12 is less than 10%
Reply | no (0)

Ask | Find out if reported Inhibition for Cc1ccc(-c2cc3c4nn(CC(=O)Nc5ccc6c(c5)OCCO6)c(=O)n4ccn3n2)cc1C is less than 10%
Reply | no (0)

Ask | Find out if reported Inhibition for CCc1nnc2c(SCC(=O)Nc3ccc(OC)c(Cl)c3)nc3ccccc3n12 is less than 10%
Reply | no (0)

Ask | Find out if reported Inhibition for O=C(CSc1nnc2c(=O)n(-c3ccc(F)c(F)c3)ccn12)c1ccccc1Cl is less than 10%
Reply | no (0)

Ask | Find out if reported Inhibition for Cc1ccc(CNC(=O)CSc2nnc3c4cc(-c5ccc(C)cc5)nn4ccn23)cc1 is less than 10%
Reply | no (0)

====

# System: Klebsiella pneumoniae
# condition_details: Concentration 32 ug.mL-1;; ASSAY_TEST Inhibition of Bacterial Growth; detection method Absorption (OD600); MEDIA CAMHB; plate type 384well; NBS; CORNING #3640; time 18 hr
Measured potencies and affinities stand elsewhere.
observation_type: Inhibition (%)
Provide the reading as a plain figure in %.

Ask | Please report the recorded Inhibition for COc1ccc(C)cc1NC(=O)Cn1nc2c3cc(-c4ccc(Cl)cc4)nn3ccn2c1=O .
Reply | 15.75

Ask | Please report the recorded Inhibition for Cc1cccc(C)c1NC(=O)Cn1nc2c3c4c(sc3ncn2c1=O)CCCC4 .
Reply | 12.26

Ask | Please report the recorded Inhibition for Cn1c(=O)c2ccc(C(=O)NC3CCCCC3)cc2n2c(=O)n(CC#N)nc12 .
Reply | 3.72

Ask | Please report the recorded Inhibition for CC(C)c1nnc2c(SCC(=O)Nc3cccc(Br)c3)nc3ccccc3n12 .
Reply | 2.52

Ask | Please report the recorded Inhibition for COc1ccccc1N1CCN(C(=O)Cn2nc3c(Oc4ccc(C)cc4)nccn3c2=O)CC1 .
Reply | 13.94

Ask | Please report the recorded Inhibition for Cc1cccc(NC(=O)Cn2nc3c4cc(-c5ccc(Cl)cc5)nn4ccn3c2=O)c1C .
Reply | 3.93

Ask | Please report the recorded Inhibition for CCOc1ccc(NC(=O)Cn2nc3c(Sc4ccc(C)cc4C)nccn3c2=O)cc1 .
Reply | 3.27

Ask | Please report the recorded Inhibition for Cc1cc2nn(CC(=O)Nc3cccc(C)c3C)c(=O)n2c(Nc2ccc(F)c(C)c2)n1 .
Reply | 8.99

Ask | Please report the recorded Inhibition for Cc1ccc(N(Cc2ccc(F)cc2)S(=O)(=O)c2ccc3nnc(C)n3c2)cc1 .
Reply | 5.71

Ask | Please report the recorded Inhibition for O=C(Cn1nc2c(Sc3ccccc3)nccn2c1=O)Nc1ccc(Br)cc1F .
Reply | 9.23

Ask | Please report the recorded Inhibition for CCc1ccc(NC(=O)Cn2nc3c(=O)n(-c4ccc(Br)cc4)ccn3c2=O)cc1 .
Reply | -9.6

Ask | Please report the recorded Inhibition for CCOc1ccc(-n2ccn3c(SCC(=O)Nc4ccc(C)cc4)nnc3c2=O)cc1 .
Reply | 16.35

Ask | Please report the recorded Inhibition for COc1ccccc1NC(=O)Cn1nc2c3cc(-c4ccc(Cl)cc4)nn3ccn2c1=O .
Reply | 7.17

Ask | Please report the recorded Inhibition for O=C(Cn1nc2c(Sc3cccc(F)c3)nccn2c1=O)N1CCN(c2ccccc2)CC1 .
Reply | 4.19

Ask | Please report the recorded Inhibition for Cc1ccc(-c2ccc3nn(CC(=O)Nc4ccc(C#N)cc4)c(=O)n3n2)cc1C .
Reply | 8.41

Ask | Please report the recorded Inhibition for COc1cccc(-n2ccn3c(SCC(=O)Nc4ccccc4F)nnc3c2=O)c1 .
Reply | 7.91

Ask | Please report the recorded Inhibition for O=C(CSc1nnc2c(=O)n(Cc3ccc(F)cc3)ccn12)NCC1CCCO1 (stereo not given) .
Reply | 11.7

Ask | Please report the recorded Inhibition for O=C(Cn1nc2c(SC3CCCCC3)nccn2c1=O)Nc1ccc(F)cc1 .
Reply | 10.22

Ask | Please report the recorded Inhibition for COc1ccc(NC(=O)Cn2nc3c4c5c(sc4ncn3c2=O)CCCC5)cc1 .
Reply | 6.74

Ask | Please report the recorded Inhibition for COc1ccc(C(C)NC(=O)CCc2nnc3ccc(-c4ccc(C)c(C)c4)nn23)cc1OC (stereo not given) .
Reply | 11.56
